Assay: MTT assay, cell viability
Type: cell-based, human
Conditions: human; MCF-10A normal breast cells, same time points; read-out: cell viability rate
endpoint: viability at 48 h

Give me measured viability at 48 h, please, for this compound: CC[C@H]1OC2(C)C(OC(C)=O)[C@@]1(C)OC(/C=C/C=C/C=C/c1oc(=O)cc(OC)c1C)[C@@H]2O (stereo partly shown) ≥ 80%

----------
System: T47D breast cancer cell line
Test: MTT assay, cell viability
Format: cell-based
Conditions: Homo sapiens, 48 hours
endpoint: IC50 (nM)
Answers are plain numbers, in nM.

Report IC50 on T47D breast cancer cell line for this entry: CC[C@H]1OC2(C)C(OC(C)=O)[C@@]1(C)OC(/C=C/C=C/C=C/c1oc(=O)cc(OC)c1C)[C@@H]2O (stereo partly shown) 890
